Data provenance: PubChem BioAssay (EPA / NIEHS)

- system_tested: zebrafish Thyroid Hormone Receptor alpha (TRa), thraa (gene 30670) (UniProt Q98867)
- Sequence (Q98867 whole entry, looked up, the tested form may be a part): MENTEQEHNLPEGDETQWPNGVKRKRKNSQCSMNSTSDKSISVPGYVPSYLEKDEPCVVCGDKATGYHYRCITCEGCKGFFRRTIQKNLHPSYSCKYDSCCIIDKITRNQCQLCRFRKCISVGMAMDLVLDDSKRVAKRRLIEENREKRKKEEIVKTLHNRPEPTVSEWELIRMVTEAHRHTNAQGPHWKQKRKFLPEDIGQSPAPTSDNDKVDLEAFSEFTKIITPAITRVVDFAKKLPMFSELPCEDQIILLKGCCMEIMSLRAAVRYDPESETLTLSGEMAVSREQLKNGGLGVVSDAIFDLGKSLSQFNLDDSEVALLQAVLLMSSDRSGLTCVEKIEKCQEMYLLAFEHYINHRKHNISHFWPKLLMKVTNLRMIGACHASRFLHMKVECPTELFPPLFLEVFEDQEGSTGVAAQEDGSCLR
- assay_method_text: ATG_zfTRa_XSP2: Attagene TRANS-FACTORIAL Multi-Species (XSP1) HepG2 Assay for zebrafish Thyroid Hormone Receptor alpha (TRa) (AID 2283832);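 further: actives raise zebrafish TRa-Gal4 reporter transcript above DMSO baseline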
Results filed as inconclusive are left out. Activity calls are given as the source filed them. How the source made its calls: active means hit-call score of the fitted dose curve at least 0.9, where 1 is the maximum; inconclusive means response in the unintended direction; inactive means score below 0.9.
measurement_label: outcome

line_notation: Oc1ccc(C(c2ccc(O)cc2)(C(F)(F)F)C(F)(F)F)cc1
result: inactive
//
line_notation: CCOC(=O)C(O)(c1ccc(Cl)cc1)c1ccc(Cl)cc1
result: inactive
//
line_notation: CC(c1ccc(O)cc1)(c1ccc(O)cc1)c1ccc(O)cc1
result: inactive
//
line_notation: Cc1cc(-c2ccc(N)c(C)c2)ccc1N
result: inactive
